solubility kinetic by entry:
# procedure text: Aqueous kinetic solubility by aliquot addition method
# Assay type: physicochemical
# test context: water, ambient temperature, visual dissolution
Structures can show the parent of a compound that is named as a salt.
quantity: solubility kinetic

CCN(C/C=C\c1ccc(C2CCCCC2)c(Cl)c1)C1CCCCC1.CCS(=O)(=O)O [Esylate salt] :: 30 mg/mL
CCN(C/C=C\c1ccc(C2CCCCC2)c(Cl)c1)C1CCCCC1 [Salicylate salt] :: < 1 mg/mL

* * *

# procedure text: Thermogravimetric analysis (TGA), thermal decomposition
# Format: physicochemical
# test context: TGA, heated under nitrogen
Structures can show the parent of a compound that is named as a salt.
Reported Decomposition onset values are given for each entry in this list.
quantity: Decomposition onset (°C)

CCN(C/C=C\c1ccc(C2CCCCC2)c(Cl)c1)C1CCCCC1.CCS(=O)(=O)O [Esylate salt] :: 268
CCN(C/C=C\c1ccc(C2CCCCC2)c(Cl)c1)C1CCCCC1.O=C(O)c1ccc2ccccc2c1O [Xinafoate salt] :: 146
CCN(C/C=C\c1ccc(C2CCCCC2)c(Cl)c1)C1CCCCC1.O=S(=O)(O)c1ccccc1 [Besylate salt] :: 274
CCN(C/C=C\c1ccc(C2CCCCC2)c(Cl)c1)C1CCCCC1.O=S(=O)(O)CCS(=O)(=O)O [Edisylate salt] :: 260
CCN(C/C=C\c1ccc(C2CCCCC2)c(Cl)c1)C1CCCCC1 [Salicylate salt] :: 212
